Taken from patent US11000454B2.

Test: Solubility of the compounds in tested solvents
Assay type: physicochemical
Set-up: key: “−” means NO solubility; “++” means VERY GOOD solubility
Conditions: EtOH

Compound	solubility
C=CCN(C/C=C/C(C)N(CC=C)C(=O)C=C)C(=O)C=C (stereo not drawn)	++
C=CCN(C/C=C/CN(CC=C)C(=O)C=C)C(=O)C=C	++
C=CCN(C/C=C/CN(CC=C)C(C)=O)C(C)=O	++
C=CC(=O)N(C/C=C/CN(CCC)C(=O)C=C)CCC	++
C=CCN(CCCCN(CC=C)C(=O)C=C)C(=O)C=C	−
C=CC(=O)N(CCC)CCCCN(CCC)C(=O)C=C	++

* * *

Test: Refractive index (RI) measured at 20° C.
Format: physicochemical
Details: refractive index at 20° C.; tables

Molecule	nD^20
C=CCN(C/C=C/CN(CC=C)C(=O)C=C)C(=O)C=C	1.5290
C=CCN(C/C=C/C(C)N(CC=C)C(=O)C=C)C(=O)C=C (centres unmarked)	1.5260
C=CCN(CCCCN(CC=C)C(=O)C=C)C(=O)C=C	1.5150
C=CC(=O)N(C/C=C/CN(CCC)C(=O)C=C)CCC	1.5095
C=CC(=O)N(CCC)CCCCN(CCC)C(=O)C=C	1.5150

* * *

Test: Viscosity measured at 23° C.
Assay type: physicochemical
Conditions: viscosity at 23° C.; tables

Molecule	η23° C., mPa · s
C=CCN(C/C=C/C(C)N(CC=C)C(=O)C=C)C(=O)C=C (centres unmarked) [Compound (Ib)]	409.0
C=CCN(CCCCN(CC=C)C(=O)C=C)C(=O)C=C [(C2)]	382.0
C=CCN(C/C=C/CN(CC=C)C(=O)C=C)C(=O)C=C [(Ia)]	338.0
C=CC(=O)N(C/C=C/CN(CCC)C(=O)C=C)CCC [(Ic)]	427.5
C=CC(=O)N(CCC)CCCCN(CCC)C(=O)C=C [(C3)]	485.5

* * *

Assay: Solubility of the compounds in tested solvents
Assay type: physicochemical
Set-up: key: “−” means NO solubility; “++” means VERY GOOD solubility
Conditions: iPrOH
Reported Metric: solubility

Molecule	Result
C=CCN(C/C=C/CN(CC=C)C(=O)C=C)C(=O)C=C	++
C=CCN(C/C=C/CN(CC=C)C(C)=O)C(C)=O	++
C=CCN(C/C=C/C(C)N(CC=C)C(=O)C=C)C(=O)C=C (stereo not drawn)	++
C=CCN(CCCCN(CC=C)C(=O)C=C)C(=O)C=C	−
C=CC(=O)N(CCC)CCCCN(CCC)C(=O)C=C	++
C=CC(=O)N(C/C=C/CN(CCC)C(=O)C=C)CCC	++
